STUDY_TARGET: hNav1.7 (Homo sapiens, UniProt Q15858)
Sequence (Q15858 1-1977 isoform Q15858-3): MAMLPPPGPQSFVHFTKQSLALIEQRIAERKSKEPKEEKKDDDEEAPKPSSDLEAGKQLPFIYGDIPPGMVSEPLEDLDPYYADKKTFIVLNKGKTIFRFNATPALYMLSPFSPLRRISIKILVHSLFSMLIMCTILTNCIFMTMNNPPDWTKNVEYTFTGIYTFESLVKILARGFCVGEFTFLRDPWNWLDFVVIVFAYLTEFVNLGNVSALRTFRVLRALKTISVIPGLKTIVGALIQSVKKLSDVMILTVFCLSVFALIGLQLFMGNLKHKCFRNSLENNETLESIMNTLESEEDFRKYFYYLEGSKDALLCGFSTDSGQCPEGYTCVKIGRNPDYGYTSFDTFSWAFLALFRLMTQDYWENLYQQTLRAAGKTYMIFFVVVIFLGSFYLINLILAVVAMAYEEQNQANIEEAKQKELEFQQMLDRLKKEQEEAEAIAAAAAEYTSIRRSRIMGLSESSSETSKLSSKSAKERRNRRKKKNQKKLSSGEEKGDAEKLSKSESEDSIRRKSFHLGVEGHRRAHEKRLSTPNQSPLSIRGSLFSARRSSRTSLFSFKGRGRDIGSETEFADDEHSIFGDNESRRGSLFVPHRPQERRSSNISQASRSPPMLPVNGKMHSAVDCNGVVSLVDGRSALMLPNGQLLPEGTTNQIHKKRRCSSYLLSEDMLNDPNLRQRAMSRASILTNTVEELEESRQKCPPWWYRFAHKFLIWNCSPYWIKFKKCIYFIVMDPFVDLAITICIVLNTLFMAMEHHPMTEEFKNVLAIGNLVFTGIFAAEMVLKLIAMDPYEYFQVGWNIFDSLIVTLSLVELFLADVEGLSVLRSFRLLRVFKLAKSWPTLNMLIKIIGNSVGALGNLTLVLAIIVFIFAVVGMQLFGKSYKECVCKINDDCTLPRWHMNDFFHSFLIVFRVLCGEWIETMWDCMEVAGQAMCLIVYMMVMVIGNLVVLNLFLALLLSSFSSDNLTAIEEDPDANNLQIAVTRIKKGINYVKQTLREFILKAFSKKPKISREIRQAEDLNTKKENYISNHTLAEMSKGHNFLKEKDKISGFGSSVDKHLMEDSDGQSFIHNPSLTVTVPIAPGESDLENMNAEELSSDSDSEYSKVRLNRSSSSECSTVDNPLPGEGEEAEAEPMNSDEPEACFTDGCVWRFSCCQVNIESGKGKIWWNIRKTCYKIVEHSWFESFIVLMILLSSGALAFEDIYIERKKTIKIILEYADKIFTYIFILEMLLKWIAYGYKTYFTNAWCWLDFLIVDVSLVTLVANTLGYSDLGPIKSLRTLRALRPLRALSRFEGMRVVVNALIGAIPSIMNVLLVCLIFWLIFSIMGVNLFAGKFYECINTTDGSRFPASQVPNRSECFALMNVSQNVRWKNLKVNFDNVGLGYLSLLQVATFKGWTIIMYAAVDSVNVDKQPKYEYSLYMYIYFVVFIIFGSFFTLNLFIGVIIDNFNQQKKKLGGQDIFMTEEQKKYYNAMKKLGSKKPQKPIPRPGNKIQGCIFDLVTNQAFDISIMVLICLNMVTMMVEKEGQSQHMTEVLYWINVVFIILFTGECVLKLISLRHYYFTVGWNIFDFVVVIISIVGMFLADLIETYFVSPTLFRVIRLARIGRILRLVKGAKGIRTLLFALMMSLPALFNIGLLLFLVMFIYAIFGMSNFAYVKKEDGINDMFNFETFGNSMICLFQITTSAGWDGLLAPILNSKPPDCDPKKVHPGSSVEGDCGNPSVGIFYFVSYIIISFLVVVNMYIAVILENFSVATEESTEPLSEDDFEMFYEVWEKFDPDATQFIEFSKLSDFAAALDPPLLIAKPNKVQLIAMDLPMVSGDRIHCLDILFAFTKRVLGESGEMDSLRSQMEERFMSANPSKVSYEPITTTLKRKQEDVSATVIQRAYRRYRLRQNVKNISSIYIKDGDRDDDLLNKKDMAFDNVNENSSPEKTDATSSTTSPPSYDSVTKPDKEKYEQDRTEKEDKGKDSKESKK
Sequence (Q07699 19-218 partner): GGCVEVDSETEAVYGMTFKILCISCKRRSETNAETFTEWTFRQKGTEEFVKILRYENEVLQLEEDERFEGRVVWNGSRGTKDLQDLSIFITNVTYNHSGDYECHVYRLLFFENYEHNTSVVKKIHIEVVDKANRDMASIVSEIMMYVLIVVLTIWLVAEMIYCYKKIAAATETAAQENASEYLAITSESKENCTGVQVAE
ASSAY_TEXT: Tritiated compound binding (LBA) to membranes from cells expressing hNav1.7 and the β1 subunit, competitive binding
EXPERIMENTAL_CONDITIONS: competitive binding vs 100 pM [3H]compound, 18 h, room temperature, membranes with hNav1.7 and β1 subunit
pIC50: −log10 of the molar value.
VALUE_TYPE: pIC50

Looking up O=C(O)[C@@H]1CCCN1C(=O)c1cc(C2CC2)c(O[C@H]2CCCN(Cc3ccc(F)cc3Cl)C2)cc1F [Example 95] , I see its pIC50 listed as ≤ 5.00

pIC50 recorded for this molecule, O=C(O)[C@@H]1C=C(C(F)(F)F)CN1C(=O)c1cc(C2CC2)c(OCC23CC4CC(CC(C4)C2)C3)cc1F [Example 203] , is ≤ 5.00

The molecule O=C(O)[C@H]1C[C@@H](O)CN1C(=O)c1cc(C2CC2)c(OCC23CC4CC(CC(C4)C2)C3)cc1F [Example 47] showed pIC50 equal to ≤ 5.00

----------
STUDY_TARGET: hNav1.7 (Homo sapiens, UniProt Q15858)
ASSAY_TEXT: Tritiated compound binding (LBA) to membranes from cells expressing hNav1.7 and the β1 subunit, competitive binding
EXPERIMENTAL_CONDITIONS: competitive binding vs 100 pM [3H]compound, 18 h, room temperature, membranes with hNav1.7 and β1 subunit
# reported IC50; entries follow
Report the figure in nM without appending any unit label.

Some molecules with known IC50 results, for comparison:
| MOLECULE | STUDY_TARGET | IC50 / nM |
| --- | --- | --- |
| CC(C)[C@H](NC(=O)c1cc(C2CC2)c(COc2cc(Cl)cc(OC(F)(F)F)c2)cc1F)C(=O)O [Example 183] | hNav1.7 (Homo sapiens, UniProt Q15858) | 31 |
| C[C@H]1OCN(C(=O)c2cc(C3CC3)c(OCC3CCN(Cc4cc(C(F)(F)F)cc(Cl)c4F)CC3)cc2F)[C@@H]1C(=O)O [Example 227] | hNav1.7 (Homo sapiens, UniProt Q15858) | 29 |
| C[C@H](c1cc(Cl)cc(Cl)c1)N1CCC[C@H](COc2cc(F)c(C(=O)N3CCC[C@H]3C(=O)O)cc2C2CC2)C1 (single isomer, unassigned) [Example 73a] | hNav1.7 (Homo sapiens, UniProt Q15858) | 360 |

Now let's try a different one.
Noted IC50 for CC1(C)[C@H]2CC[C@H](COc3cc(F)c(C(=O)N4CCC[C@H]4C(=O)O)cc3C3CC3)[C@@H]1C2 [Example 90] , tested on hNav1.7 (Homo sapiens, UniProt Q15858): 21

----------
STUDY_TARGET: NaV1.5 (Homo sapiens, UniProt Q14524)
Construct: permanently transfected with an expression vector containing the full-length cDNA coding for the desired human sodium channel α-subunit; expressed in transfected cells; host or cells: HEK-293
Sequence (Q14524 whole entry): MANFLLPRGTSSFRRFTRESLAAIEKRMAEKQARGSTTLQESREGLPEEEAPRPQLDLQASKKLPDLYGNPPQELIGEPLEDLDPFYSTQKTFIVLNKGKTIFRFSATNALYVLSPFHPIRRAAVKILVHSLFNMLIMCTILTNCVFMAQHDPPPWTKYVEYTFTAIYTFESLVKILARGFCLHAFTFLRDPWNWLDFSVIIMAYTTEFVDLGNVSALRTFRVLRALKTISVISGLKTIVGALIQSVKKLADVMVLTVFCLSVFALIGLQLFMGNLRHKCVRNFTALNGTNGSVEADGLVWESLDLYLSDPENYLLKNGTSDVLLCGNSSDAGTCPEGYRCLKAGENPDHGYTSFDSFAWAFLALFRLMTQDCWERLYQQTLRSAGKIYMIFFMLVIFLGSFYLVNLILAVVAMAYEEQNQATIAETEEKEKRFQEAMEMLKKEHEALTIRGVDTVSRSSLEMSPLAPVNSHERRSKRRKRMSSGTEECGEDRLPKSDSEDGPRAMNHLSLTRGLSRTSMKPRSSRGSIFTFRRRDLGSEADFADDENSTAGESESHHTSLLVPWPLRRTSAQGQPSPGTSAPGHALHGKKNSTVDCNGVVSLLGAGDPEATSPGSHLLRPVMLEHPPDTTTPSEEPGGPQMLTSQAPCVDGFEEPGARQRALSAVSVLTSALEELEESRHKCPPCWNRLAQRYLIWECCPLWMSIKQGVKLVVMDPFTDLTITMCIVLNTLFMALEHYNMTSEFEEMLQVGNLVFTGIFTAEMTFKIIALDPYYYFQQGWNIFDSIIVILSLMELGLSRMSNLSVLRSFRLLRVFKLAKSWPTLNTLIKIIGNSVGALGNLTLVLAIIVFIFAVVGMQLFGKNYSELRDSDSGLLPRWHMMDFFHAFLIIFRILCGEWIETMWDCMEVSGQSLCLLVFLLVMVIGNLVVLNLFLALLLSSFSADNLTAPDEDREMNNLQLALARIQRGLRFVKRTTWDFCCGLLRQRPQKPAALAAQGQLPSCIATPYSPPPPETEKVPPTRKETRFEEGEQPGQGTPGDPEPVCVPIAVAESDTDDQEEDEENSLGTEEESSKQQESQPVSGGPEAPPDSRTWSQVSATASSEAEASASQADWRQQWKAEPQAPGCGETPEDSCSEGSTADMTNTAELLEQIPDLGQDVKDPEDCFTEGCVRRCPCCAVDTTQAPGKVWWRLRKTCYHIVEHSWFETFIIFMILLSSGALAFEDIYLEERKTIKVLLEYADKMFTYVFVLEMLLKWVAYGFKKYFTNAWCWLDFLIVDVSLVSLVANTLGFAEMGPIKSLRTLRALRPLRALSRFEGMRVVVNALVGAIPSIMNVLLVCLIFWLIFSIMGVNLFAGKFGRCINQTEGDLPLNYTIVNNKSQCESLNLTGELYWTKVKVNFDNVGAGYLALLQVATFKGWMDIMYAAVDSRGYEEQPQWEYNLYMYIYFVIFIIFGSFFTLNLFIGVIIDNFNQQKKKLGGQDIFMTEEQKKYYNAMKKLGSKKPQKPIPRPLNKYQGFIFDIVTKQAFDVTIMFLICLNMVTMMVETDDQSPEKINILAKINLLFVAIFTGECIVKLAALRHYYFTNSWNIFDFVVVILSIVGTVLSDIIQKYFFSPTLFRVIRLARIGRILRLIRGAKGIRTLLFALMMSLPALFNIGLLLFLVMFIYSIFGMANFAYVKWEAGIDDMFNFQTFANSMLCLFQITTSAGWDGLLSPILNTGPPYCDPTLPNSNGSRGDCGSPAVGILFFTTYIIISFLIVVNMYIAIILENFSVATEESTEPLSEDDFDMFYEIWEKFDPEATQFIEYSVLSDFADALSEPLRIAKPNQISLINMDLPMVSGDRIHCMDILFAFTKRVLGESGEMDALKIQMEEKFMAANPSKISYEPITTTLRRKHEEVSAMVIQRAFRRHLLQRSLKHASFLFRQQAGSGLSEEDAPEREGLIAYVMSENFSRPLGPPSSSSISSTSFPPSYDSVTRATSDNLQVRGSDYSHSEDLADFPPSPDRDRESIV
ASSAY_TEXT: Patch voltage clamp electrophysiology assay (EP), NaV1.5
Type: cell-based
EXPERIMENTAL_CONDITIONS: HEK-293 cells stably expressing NaV1.5 with β1 subunit; whole-cell patch clamp, membrane potential −60 mV (inactivated state); read-out: Nav1.5
This section presents compounds with their documented pIC50 values.
FYI, pIC50 means -log10 of a concentration in mol per litre.

Recorded pIC50, per entry:
| COMPOUND | RESULT_VALUE |
| --- | --- |
| C[C@H]1CC[C@@H](C(=O)O)N1C(=O)c1cc(C2CC2)c(OCC23CC4CC(CC(C4)C2)C3)cc1F | 4.72 |
| O=C(O)[C@@H]1CCCN1C(=O)c1cc(C2CC2)c(OC[C@H]2CCN(C(c3ccccc3)c3ccccc3)C2)cc1F (single isomer, unassigned) [Example 139a] | 4.60 |
| CO[C@H]1CCN(C(=O)c2cc(C3CC3)c(OCC34CC5CC(CC(C5)C3)C4)cc2F)[C@@H]1C(=O)O | 4.77 |

Now, please, on to the next compound.
Entry C[C@@H](c1cc(Cl)cc(Cl)c1)N1CCC(C)(COc2cc(F)c(C(=O)N3C[C@H](F)C[C@H]3C(=O)O)cc2C2CC2)CC1 (single isomer, unassigned) [Example 132a] , pIC50 reported as 4.77

----------
Listing of recorded IC50 by entry.
STUDY_TARGET: hNav1.7 (Homo sapiens, UniProt Q15858)
ASSAY_TEXT: Tritiated compound binding (LBA) to membranes from cells expressing hNav1.7 and the β1 subunit, competitive binding
EXPERIMENTAL_CONDITIONS: competitive binding vs 100 pM [3H]compound, 18 h, room temperature, membranes with hNav1.7 and β1 subunit
Form entry: value (µM) — number only.

Take a look at these entries with their results.
| COMPOUND | STUDY_TARGET | RESULT_VALUE |
| --- | --- | --- |
| O=C(NC1(C(=O)O)COC1)c1cc(C2CC2)c(OCC23CC4CC(CC(C4)C2)C3)cc1F [Example 77] | hNav1.7 (Homo sapiens, UniProt Q15858) | 7.4 |
| NC(=O)[C@@H]1CCCN1C(=O)c1cc(C2CC2)c(COc2cc(Cl)cc(OC(F)(F)F)c2)cc1F [Example 188] | hNav1.7 (Homo sapiens, UniProt Q15858) | 9.1 |
| O=C(O)[C@@H]1CCCN1C(=O)c1cc(C2CC2)c(OC2C3CC4CC2CC(Cl)(C4)C3)cc1F (single isomer, unassigned) [Example 82] | hNav1.7 (Homo sapiens, UniProt Q15858) | 1.1 |

Now examine the next entry.
// recorded IC50 for C[C@H]1C[C@@H](C(=O)O)N(C(=O)c2cc(C3CC3)c(OCC34CC5CC(CC(C5)C3)C4)cc2F)C1 [Example 148] : 0.049

----------
STUDY_TARGET: human NaV1.7 (Homo sapiens, UniProt Q15858)
Construct: permanently transfected with an expression vector containing the full-length cDNA coding for the desired human sodium channel α-subunit
ASSAY_TEXT: Patch voltage clamp electrophysiology assay (EP), NaV1.7
EXPERIMENTAL_CONDITIONS: HEK-293 cells stably expressing NaV1.7 with β1 subunit; whole-cell patch clamp, membrane potential −60 mV (inactivated state)
VALUE_TYPE: pIC50
pIC50 (log units): -log10 of the concentration in mol/L.

Recorded result, C[C@@H](c1cc(Cl)cc(Cl)c1)N1CCC(C#N)(COc2cc(F)c(C(=O)N3C[C@H](F)C[C@H]3C(=O)O)cc2C2CC2)CC1 (single isomer, unassigned) [Example 126b] , pIC50: 5.85

So, `C[C@@]1(COc2cc(F)c(C(=O)N3CCC[C@H]3C(=O)O)cc2C2CC2)CCN(c2cc(C(F)(F)F)c(Cl)cn2)C1` ? Its pIC50 was 5.96

The compound listed as C[C@H]1CCN(C(=O)c2cc(C3CC3)c(OCC3CCN([C@H](c4cc(Cl)cc(Cl)c4)C(F)(F)F)CC3)cc2F)[C@@H]1C(=O)O (single isomer, unassigned) [Example 121a] shows pIC50 equal to 6.06

Value of pIC50 reported for the compound `O=C(O)[C@@H]1C[C@@H](F)CN1C(=O)c1cc(C2CC2)c(OCC2CCN(Cc3cc(C(F)(F)F)cc(C4CC4)n3)CC2)cc1F` is 6.18

----------
Here the recorded IC50 is given for each entry.
STUDY_TARGET: hNav1.7 (Homo sapiens, UniProt Q15858)
ASSAY_TEXT: Tritiated compound binding (LBA) to membranes from cells expressing hNav1.7 and the β1 subunit, competitive binding
EXPERIMENTAL_CONDITIONS: competitive binding vs 100 pM [3H]compound, 18 h, room temperature, membranes with hNav1.7 and β1 subunit
Structures can show the parent of a compound that is named as a salt.
Value expressed in nM; do not type the unit.

The following molecules have reported results that may help.
| MOLECULE | IC50 [nM] |
| --- | --- |
| CC1(C)CCC(COc2cc(F)c(C(=O)N3CCC[C@H]3C(=O)O)cc2C2CC2)CC1 | 100 |
| O=C(O)[C@@H]1C[C@@H](F)CN1C(=O)c1cc(C2CC2)c(OCC2(F)CCN(Cc3cc(C(F)(F)F)cc(Cl)c3F)CC2)cc1F | 65 |

Lab note: measured IC50 of O=C(O)[C@@H]1CCCN1C(=O)c1cc(C2CC2)c(O[C@@H]2CCCN(Cc3ccc(F)cc3Cl)C2)cc1F [Example 38, trifluoroacetic acid salt] was 152

----------
Attribute: IC50
STUDY_TARGET: human NaV1.7 (Homo sapiens, UniProt Q15858)
Construct: permanently transfected with an expression vector containing the full-length cDNA coding for the desired human sodium channel α-subunit
ASSAY_TEXT: Patch voltage clamp electrophysiology assay (EP), NaV1.7
EXPERIMENTAL_CONDITIONS: HEK-293 cells stably expressing NaV1.7 with β1 subunit; whole-cell patch clamp, membrane potential −60 mV (inactivated state)
Use nM as the unit, but write only the number.

| MOLECULE | RESULT_VALUE |
| --- | --- |
| C[C@@H]1SCN(C(=O)c2cc(C3CC3)c(OCC34CC5CC(CC(C5)C3)C4)cc2F)[C@@H]1C(=O)O [Example 142a] | 1500 |
| O=C(O)[C@@H]1CCCN1C(=O)c1cc(Cl)c(COc2cnc(OCC(F)(F)C(F)F)c(Cl)c2)cc1F | 1400 |

Quick note, IC50 for CC1(COc2cc(F)c(C(=O)N3CCC[C@H]3C(=O)O)cc2C2CC2)CCC2(CC1)CC2(F)F (some centres unmarked) landed at 790

// sample `O=C(O)[C@@H]1CCCN1C(=O)c1cc(C2CC2)c(COc2cnc(OCC(F)(F)C(F)F)c(C3CC3)c2)cc1F` , its IC50 was 1300

In plain terms, O=C(O)[C@@H]1CCCN1C(=O)c1cc(C2CC2)c(OC2C3CC4CC2CC(Cl)(C4)C3)cc1F (single isomer, unassigned) [Example 80] has a documented IC50 of 1500
